Recorded values, source ChEMBL document CHEMBL4689842.

Test system: Fibroblast
Experiment: Multiplex assay against human fibroblast
Type: toxicity, cell-based
Conditions: 48 h, 1 µM, compound concentration 1 uM, replicate 1
experimentalEndpoint: Population Pyknosed Nuclei (%)
Answers are plain numbers, in %.

Some entries whose results are on file:
INSERT INTO results (compound, experimentalendpoint, units, reportedvalue) VALUES
  ('COc1cc2ncn(-c3cc(OCc4ccccc4C(F)(F)F)c(C(N)=O)s3)c2cc1OC [GW843682X]', 'Population Pyknosed Nuclei (%)', '%', 21),
  ('Cc1ccc2c(c1)c1c(n2CCc2ccc(C)nc2)CCN(C)C1 [LATREPIRDINE]', 'Population Pyknosed Nuclei (%)', '%', 8),
  ('CCc1nn(CCCN2CCN(c3cccc(Cl)c3)CC2)c(=O)n1CCOc1ccccc1.Cl [NEFAZODONE HYDROCHLORIDE]', 'Population Pyknosed Nuclei (%)', '%', 11),
  ('Cc1c[nH]c2nccc(Oc3c(F)cc(Nc4cc(Cl)nc(N)n4)cc3F)c12', 'Population Pyknosed Nuclei (%)', '%', 12),
  ('COC(=O)C1=C(C)NC(C)=C(C(=O)OCCCN2CCC(c3ccccc3)(c3ccccc3)CC2)[C@H]1c1cccc([N+](=O)[O-])c1', 'Population Pyknosed Nuclei (%)', '%', 7);

Please find the next compound below.
// query Write down the reported Population Pyknosed Nuclei (%) of O=c1cc(N2CCOCC2)oc2c(-c3cccc4c3sc3ccccc34)cccc12 , test system: Fibroblast.
// result 10
